STUDY_SYSTEM: Neu5Ac(a2-3)Gal(b1-4)GlcNAc(b1-2)Man(a1-3)[Neu5Ac(a2-3)Gal(b1-4)GlcNAc(b1-2)Man(a1-6)]Man(b1-4)GlcNAc(b1-4)[Fuc(a1-6)]GlcNAc
MEASUREMENT_DESCRIPTION: glycan array binding signal (z-score within array); higher = stronger binding
SETUP_CONDITIONS: glycan notation: IUPAC condensed, linker removed
The full list was thinned out, with the strongest signals kept by preference.
QUANTITY: glycan array binding signal (z-score)
Give the figure only, with no unit attached.

Request: So what's the measured glycan array binding signal (z-score) for this one? EULS2 M2 (Oryza sativa) (protein) MVYCRANPNYAMTARNGAVVLAPANPKDEYQHWIKDMRWSTSIKDEEGYPAFALVNKATGQAIKHSLGQSHPVRLVPYNPEVMDESVLWTESRDVGNGFRCIRMVNNIYLNFDAFHGDKYHGGVRDGTDIVLWKLCEGDSQRWKIQPYYILEQKLISEEDLNSAVDHHHHHH
Result: -0.323

Request: Would you mind telling me what glycan array binding signal (z-score) value was observed for PpFlo2 (Pichia pastoris) (protein) MGSSHHHHHHSSGLVPRGSHMDDSGNGDNSDTAYGCDITTNAVDGFDATIYQYNANDLRLIRDPTFMSTGYLGRNVLNKISGVTVPGFNIWNPSSRTATVYGVKNVNYYNMVLELKGYFKADVSGDYKLTLSHIDDSSMLFFGKETAFKCCDAGSIPLNEAPTDYSLFTIKPSNQVNSEVISATQYLEAGKYYPVRIVFVNALERARFDFKLTIPSGAVLDDFQNYIYQFGDLDENSCHE ?
Result: -0.271

Request: Which glycan array binding signal (z-score) reading was recorded for the binder GSL-I-B4 (Griffonia simplicifolia) (protein) NFWSDVEDSIIFQGDANTTAGTLQLCKTNQYGTPLQWSAGRALYSDPVQLWDNKTESVASFYTEFTFFLKITGNGPADGLAFFLAPPDSDVKDAGEYLGLFNKSTATQPSKNQVVAVEFDTWTNPNFPEPSYRHIGINVNSIVSVATKRWEDSDIFSGKIATARISYDGSAEILTVVLSYPDGSDYILSHSVDMRQNLPESVRVGISASTGNNQFLTVYILSWRFSSNLQSTSVKAAMEPEITRTVV ?
Result: -0.214

Request: Please look up its glycan array binding signal (z-score): LlpB (Pseudomonas fluorescens) (protein) MGSSHHHHHHSSGLVPRGSHMASSGFRIILFNSANNGTAILPPRNCLVAGQYLESPSKRYKLILEADGNLRLYDNGVPIWVADSSVPYTYVDNRPNTNLVTCFYMQGSAFLVDRVGSRTWATIGDWIDGAADRAYLQVQDDGNVVVVDGVPRWARFGFTPAALPNRGVFYPDHGTGPLPSFPVWSWTF
Result: -0.332

Request: Which glycan array binding signal (z-score) is listed for GSL-I (Griffonia simplicifolia) (protein) FNLPNFWSDVKDNIIFQGDANTTAGTLQLCKTNQYGNPLQYRAGRALYSDPVQLWDNKTGSVASFYTEFTFFLKITGDGPADGLAFFLAPPDSDVKDAGAYLGLFNKSTATQPSKNQVVAVEFDTWKNTDFPEPSYRHIGINVNSIVSVATKRWEDSDIFSGKIATARISYDGSAKILTVVLSYPDGADYILSHSVDLSKNLPNPIRVGISASTGANQFLTVYVLSWRFSSALQSTSVNAAMGPEIIRTVV ?
Result: -0.283

Request: Sample BTL (Bryothamnion triquetrum) (protein) ADPICGSSGYSCTTPAILTPKSPGSFPSGYSKVIVTGVGGSYSVYIHRPDGFKVYKASEGGCASFGSYSGGGNSEVGKYGSGGTVVAVACK — what was its glycan array binding signal (z-score)?
Result: 5.15
